- Tested on: SNRK
- reported_conditions: concentration: 1 μM, replicates: in singlicate; n = 1;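 also: KINOMEscan kinase panel screen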
property_label: %Inh (%)

>>> df
                                    compound  number
 0  COc1cc2ncn(-c3cc(OCc4sccc4Cl)c(C(N)=O)s3)c2cc1OC [GSK448459]       0
 1  NCC(NC(=O)c1cc(-c2cn[nH]c2)c(-c2ccnc3[nH]ccc23)s1)c1ccccc1.O=C(O)C(F)(F)F.O=C(O)C(F)(F)F (stereo not drawn) [GSK1325775]       0
 2  COc1cc2c(cc1OC[C@@H](O)CO)ncc1c3ccc(C#N)cc3[nH]c21      58
 3  Cl.Nc1ncnc2occ(-c3ccc(NC(=O)Nc4cc(C(F)(F)F)ccc4F)cc3)c12 [SB-707548]       0
 4  C[C@@H](Oc1cc(-n2cnc3ccc(NC(=O)NC(C)(C)C)cc32)sc1C(N)=O)c1ccccc1Cl [GSK346294]       0
 5  O=C(NCCCN1CCOCC1)c1cccc(Nc2nccc(Nc3ccc(Oc4ccccc4)cc3)n2)c1 [GW663929]       0
 6  NS(=O)(=O)c1cccc(-c2ccc3nccc(-c4cccc(S(N)(=O)=O)c4)c3c2)c1 [GW867253]       0
 7  Cn1cc(-c2ccc3c(c2)CCN3C(=O)Cc2ccccc2Cl)c2c(N)ncnc21 [GSK2608885]       0
 8             CCn1cnc2c(N)ncnc21 [GW345098]       0
 9  COc1ccc(CNC(=O)NC2CCN(c3ccnc(Nc4ccc(OC)cc4)n3)C2)cc1 (stereo not drawn) [GSK1379727]       0
10  Cc1c2ccc(N(C)c3ccnc(Nc4cccc(S(N)(=O)=O)c4)n3)cc2nn1Cc1ccccc1.Cl.Cl [GW787226]       0
11  Fc1ccc(-c2ncn(CCCN3CCOCC3)c2-c2ccccn2)cc1 [SB-211742]       0
12  CC(=O)Nc1ccc(COc2ccc(Nc3ccnc4cc(-c5ccccn5)ccc34)cc2)cc1.Cl [GW440148]       0
13  Cc1nnc(-c2ccc(C)c(-c3ccc(C(=O)Nc4ccc(NS(C)(=O)=O)cc4)cc3)c2)o1 [GW702865]       0
14  Cc1cccc(Cn2ccn3c(=O)cc(N4CCOCC4)nc23)c1 [GSK2297542]       0
15  N#Cc1c(N2CCOCC2)sc(-c2ccn[nH]2)c1-c1ccc(Cl)cc1      12
16  Nc1nccc(-c2c(-c3ccc(F)cc3)ncn2C2CCN(CC(F)(F)F)CC2)n1 [SB-236560]      16
17  CN1c2ccc(NCc3ccc(F)cc3)cc2-c2c(cnn2C)S1(=O)=O       0

###

- Tested on: PIP5K2B
- reported_conditions: concentration: 1 μM, replicates: in singlicate; n = 1
# %Inh values compiled below
property_label: %Inh

In [3]: df
Out[3]:
                                    molecule  result
 0  Cc1ccc(NC(=O)c2ccnc(N3CCN(C)CC3)c2)cc1-c1ccc(C(=O)NCC2CC2)cc1      0%
 1      CN(C1=C(c2ccccc2)C(=O)NC1=O)c1ccccc1      7%
 2  Cc1cccc(-c2nc(-c3ccc(S(C)(=O)=O)cc3)sc2-c2ccncc2)c1     55%
 3  N#Cc1c(N2CCOCC2)sc(-c2ccn[nH]2)c1-c1ccc(Cl)cc1      7%
 4  NS(=O)(=O)CCc1cccc(Nc2nccc(-c3c(-c4cccc(NC(=O)c5c(F)cccc5F)c4)nn4ccccc34)n2)c1      0%
 5  NCC(NC(=O)c1cc(-c2cn[nH]c2)c(-c2ccnc3[nH]ccc23)s1)c1ccccc1.O=C(O)C(F)(F)F.O=C(O)C(F)(F)F (stereo not drawn)     71%
 6  O=C(NCCCN1CCOCC1)c1cccc(Nc2nccc(Nc3ccc(Oc4ccccc4)cc3)n2)c1      0%
 7   Cc1cccc(Cn2ccn3c(=O)cc(N4CCOCC4)nc23)c1      2%
 8                        CCn1cnc2c(N)ncnc21      0%
 9  Cl.Nc1ncnc2occ(-c3ccc(NC(=O)Nc4cc(C(F)(F)F)ccc4F)cc3)c12     36%
10  O=c1cc(N2CCOCC2)nc2n(Cc3cccc(C(F)(F)F)c3)ccn12      9%
11  O=C(c1ccc(-c2cc(-c3c[nH]nc3-c3ccccn3)ccn2)cc1)N1CCOCC1      0%
12  O=c1cc(N2CCOCC2)nc2n(Cc3cccc(Cl)c3Cl)c(C3CC3)nn12      0%
13  O=C(Nc1n[nH]c2cc(-c3cccc(F)c3)ccc12)C1CC1      5%
14      CSc1ccc(-c2cc3ncnc(SCC(=O)O)c3s2)cc1     20%
15  COc1cc2c(cc1OC[C@@H](O)CO)ncc1c3ccc(C#N)cc3[nH]c21     42%
16  O=C1NC(=O)C(N2CCc3ccccc32)=C1c1cccc(Cl)c1      0%
17  COc1ccc(Nc2nccc(N3CCC(NC(=O)Nc4cccc(C(C)=O)c4)C3)n2)cc1 (stereo not drawn)     12%
